Attribution: patent US12162888B2

# assayedTarget: USP25 (USP25-His6, Boston Biochem E-546) (Homo sapiens)
# Construct: His6 (C); purchased Boston Biochem E-546
# Sequence (Q9UHP3 1-1055): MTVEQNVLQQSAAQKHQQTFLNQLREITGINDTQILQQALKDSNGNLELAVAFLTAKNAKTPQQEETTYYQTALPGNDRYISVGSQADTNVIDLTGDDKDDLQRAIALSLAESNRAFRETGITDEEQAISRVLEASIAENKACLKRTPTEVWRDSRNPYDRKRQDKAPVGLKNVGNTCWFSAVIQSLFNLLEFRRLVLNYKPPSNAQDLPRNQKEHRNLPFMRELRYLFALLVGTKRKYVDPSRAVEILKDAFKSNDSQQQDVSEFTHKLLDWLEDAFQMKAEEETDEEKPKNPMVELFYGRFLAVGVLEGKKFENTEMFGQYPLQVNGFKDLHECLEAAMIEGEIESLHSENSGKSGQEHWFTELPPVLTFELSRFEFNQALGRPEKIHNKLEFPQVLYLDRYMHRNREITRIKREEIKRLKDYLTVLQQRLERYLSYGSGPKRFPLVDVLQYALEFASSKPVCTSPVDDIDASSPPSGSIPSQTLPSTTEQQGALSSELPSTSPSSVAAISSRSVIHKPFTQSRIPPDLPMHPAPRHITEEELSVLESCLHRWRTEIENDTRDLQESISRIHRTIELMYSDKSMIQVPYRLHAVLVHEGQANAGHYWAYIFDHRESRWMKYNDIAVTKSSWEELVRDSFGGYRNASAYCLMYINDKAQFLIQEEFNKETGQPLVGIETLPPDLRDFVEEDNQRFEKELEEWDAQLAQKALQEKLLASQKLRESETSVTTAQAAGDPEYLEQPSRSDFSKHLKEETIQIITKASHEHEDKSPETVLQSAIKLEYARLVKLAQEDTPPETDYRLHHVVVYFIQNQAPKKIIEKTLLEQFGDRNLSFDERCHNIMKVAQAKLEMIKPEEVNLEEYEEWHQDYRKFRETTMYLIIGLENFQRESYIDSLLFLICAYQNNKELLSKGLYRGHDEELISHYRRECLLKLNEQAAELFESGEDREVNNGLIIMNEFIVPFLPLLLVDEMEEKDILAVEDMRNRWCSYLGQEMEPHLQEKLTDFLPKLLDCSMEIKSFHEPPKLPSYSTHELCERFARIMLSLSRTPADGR
# testProtocol: Ubiquitin-Rhodamine 110 Assay for USP25 Activity, Example A-3
# Format: biochemical
# conditions: Ubiquitin-Rhodamine 110 assay, Example A-3; read-out: USP25 A-3 IC50 range
pIC50: −log10 of the molar value.
This section presents compounds with their documented pIC50 values.

Solved cases (3 shown):
- compound: "Cc1ccc2c(N)c(C(=O)N[C@@H]3CCc4nc(N5C[C@@H](CF)[C@@H](N)C5)ncc4C3)sc2n1"
  recordedEndpoint: "pIC50"
  value: "< 5.70"
- compound: "CO[C@H]1CN(c2ccc3c(c2)OC[C@H](NC(=O)c2sc4nc(C)cnc4c2N)C3)C[C@@H]1N"
  recordedEndpoint: "pIC50"
  value: "5.70 to 6.70"
- compound: "CCn1ccc2cc(C(=O)N[C@H]3CCc4nc(N5C[C@@H](N)[C@H](C(F)F)C5)ccc4C3)cnc21"
  recordedEndpoint: "pIC50"
  value: "< 5.70"

Measured pIC50 of Cc1ccc2c(N)c(C(=O)N[C@@H]3COc4cc(N5C[C@@H]6CNC[C@H]6C5)ccc4C3)sc2n1 : 5.70 to 6.70

Measured pIC50 of COC[C@@]1(C)CN(c2ccc3c(n2)CC[C@H](NC(=O)c2sc4nc(C)ccc4c2N)C3)C[C@H]1N : 5.70 to 6.70

Measured pIC50 of COC[C@H]1[C@H](N)CCN1c1ccc2c(n1)CC[C@H](NC(=O)c1sc3nc(C)ccc3c1N)C2 : < 5.70

---

# assayedTarget: USP28 (USP28-5(1-1077)-TEV-6*His; LifeSensors) (Homo sapiens, UniProt Q96RU2)
# Construct: construct USP28 (USP28-5(1-1077)-TEV-6*His; LifeSensors); TEV cleavage site (C); 6xHis (C); purchased LifeSensors
# Sequence (Q96RU2 1-1077): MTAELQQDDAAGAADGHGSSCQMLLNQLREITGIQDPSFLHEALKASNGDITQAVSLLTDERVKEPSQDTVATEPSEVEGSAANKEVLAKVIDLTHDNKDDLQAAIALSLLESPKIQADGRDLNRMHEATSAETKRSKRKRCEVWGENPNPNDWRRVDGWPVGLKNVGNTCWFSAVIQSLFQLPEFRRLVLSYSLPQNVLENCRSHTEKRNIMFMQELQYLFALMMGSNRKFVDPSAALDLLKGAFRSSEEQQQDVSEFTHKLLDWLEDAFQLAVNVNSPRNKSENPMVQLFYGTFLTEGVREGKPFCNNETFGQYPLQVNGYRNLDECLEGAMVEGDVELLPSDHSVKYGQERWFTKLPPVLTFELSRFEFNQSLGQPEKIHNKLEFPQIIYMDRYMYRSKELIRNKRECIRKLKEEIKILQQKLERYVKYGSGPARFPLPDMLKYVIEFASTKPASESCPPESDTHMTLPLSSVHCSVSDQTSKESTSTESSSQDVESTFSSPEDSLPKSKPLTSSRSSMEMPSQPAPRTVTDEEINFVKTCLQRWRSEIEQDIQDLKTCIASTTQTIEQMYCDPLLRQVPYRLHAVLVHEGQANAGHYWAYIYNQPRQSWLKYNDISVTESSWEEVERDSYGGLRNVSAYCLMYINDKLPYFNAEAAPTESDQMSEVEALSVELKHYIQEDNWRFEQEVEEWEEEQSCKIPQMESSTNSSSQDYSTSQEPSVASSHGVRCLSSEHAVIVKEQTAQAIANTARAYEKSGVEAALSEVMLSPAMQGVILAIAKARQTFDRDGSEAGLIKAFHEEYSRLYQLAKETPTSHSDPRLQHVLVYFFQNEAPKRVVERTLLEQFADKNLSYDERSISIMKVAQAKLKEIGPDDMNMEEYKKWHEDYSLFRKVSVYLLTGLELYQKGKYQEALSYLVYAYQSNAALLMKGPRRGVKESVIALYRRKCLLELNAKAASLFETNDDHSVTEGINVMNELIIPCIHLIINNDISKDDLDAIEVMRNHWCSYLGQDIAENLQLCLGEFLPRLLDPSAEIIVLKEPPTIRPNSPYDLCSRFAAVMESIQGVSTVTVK
# testProtocol: Ubiquitin-Rhodamine 110 Assay for USP28 Activity, Example A-1(b)
# Type: biochemical
recordedEndpoint: USP28 A-1(b) IC50 range

Solved cases (5 shown):
- compound: "Cc1cnc2c(N)c(C(=O)N[C@@H]3CCc4c(ccc(N5CCNCC5)c4F)C3)sc2n1 (single isomer, unassigned)"
  assayedTarget: "USP28 (USP28-5(1-1077)-TEV-6*His; LifeSensors) (Homo sapiens, UniProt Q96RU2)"
  USP28 A-1(b) IC50 range: "++ (“++”: 0.2-2 μM)"
- compound: "CN[C@@H]1CCN(c2ccc3c(c2)CC[C@@H](NC(=O)c2sc4nc(C)cnc4c2N)C3)C1 (single isomer, unassigned)"
  assayedTarget: "USP28 (USP28-5(1-1077)-TEV-6*His; LifeSensors) (Homo sapiens, UniProt Q96RU2)"
  USP28 A-1(b) IC50 range: "+ (“+”L>2 μM)"
- compound: "Cc1cnc2c(N)c(C(=O)N[C@@H]3CCc4cc(N5C[C@@H]6C[C@H]5CN6)ccc4C3)sc2n1 (single isomer, unassigned)"
  assayedTarget: "USP28 (USP28-5(1-1077)-TEV-6*His; LifeSensors) (Homo sapiens, UniProt Q96RU2)"
  USP28 A-1(b) IC50 range: "++ (“++”: 0.2-2 μM)"
- compound: "Cc1cnc2c(N)c(C(=O)N[C@H]3CCc4cc(N5C[C@H]6C[C@@H]5CN6)ccc4C3)sc2n1 (single isomer, unassigned)"
  assayedTarget: "USP28 (USP28-5(1-1077)-TEV-6*His; LifeSensors) (Homo sapiens, UniProt Q96RU2)"
  USP28 A-1(b) IC50 range: "++ (“++”: 0.2-2 μM)"
- compound: "Cc1cnc2c(N)c(C(=O)N[C@H]3CCc4c(ccc(N5CCNCC5)c4F)C3)sc2n1 (single isomer, unassigned)"
  assayedTarget: "USP28 (USP28-5(1-1077)-TEV-6*His; LifeSensors) (Homo sapiens, UniProt Q96RU2)"
  USP28 A-1(b) IC50 range: "+ (“+”L>2 μM)"

Sample Cc1ccc2c(N)c(C(=O)N[C@@H]3COc4cc(N5CCNCC5)ccc4[C@@H]3C)sc2n1 (single isomer, unassigned) , system: USP28 (USP28-5(1-1077)-TEV-6*His; LifeSensors) (Homo sapiens, UniProt Q96RU2). Its USP28 A-1(b) IC50 range is + (“+”L>2 μM)

---

This section presents molecules with their documented pIC50 values.
# assayedTarget: USP28 (His-tagged USP28-FL-mammalian) (Homo sapiens)
# Construct: Expression of USP28 (1-1077)-TEV-6*His (pTT5 vector) was carried out in Expi293f cells; made in house; host or cells: Expi293F cells (pTT5 vector)
# testProtocol: Ubiquitin-Rhodamine 110 Assay for USP28 Activity, Example A-1(a)
# Assay type: biochemical
# conditions: biochemical IC50 range, Ubiquitin-Rhodamine 110 assay, read-out: USP28 A-1(a)
# Text: Example A-1(a): Biochemical Assay: Ubiquitin-Rhodamine 110 Assay for USP28 Activity […] For assay formats Example A-1(a), A-1(b), and A-2, data were reported as percent inhibition compared with control wells based on the following equation: % inh=1−((FLU−AveLow)/(AveHigh−AveLow)) where FLU=measured Fluorescence, AveLow=average Fluorescence of no enzyme control (n=16), and AveHighh=average Fluorescence of DMSO control (n=16). […]
pIC50: −log10 of the molar value.

- molecule: "Cc1ccc2c(N)c(C(=O)N[C@H]3COc4cc(N5C[C@H](N)[C@@]6(CCCCO6)C5)ccc4C3)sc2n1"
  pIC50: "7.30 to 9.00"
- molecule: "CO[C@]12CCN[C@H]1CN(c1ccc3c(c1)OC[C@H](NC(=O)c1sc4nc(C)ccc4c1N)C3)C2"
  pIC50: "7.30 to 9.00"
- molecule: "Cc1ccc2c(N)c(C(=O)N[C@H]3COc4cc(OC[C@@H]5CNCC5(F)F)ccc4C3)sc2n1"
  pIC50: "7.30 to 9.00"
- molecule: "COC[C@@H]1CN(c2cc(F)c3c(c2)OC[C@H](NC(=O)c2sc4nc(C)ncc4c2N)C3)C[C@@H]1N"
  pIC50: "5.70 to 6.70"
- molecule: "Cc1ccc2c(N)c(C(=O)NC3COc4cc(N5CC6NCC(F)(F)C6C5)ccc4C3)sc2n1 (centres unmarked)"
  pIC50: "7.30 to 9.00"
- molecule: "COC1CN(c2ccc3c(c2)CC[C@H](NC(=O)c2sc4nc(C)cnc4c2N)C3)CC1N (stereo in doubt)"
  pIC50: "6.70 to 7.30"

Measured pIC50 of Cc1ccc2c(N)c(C(=O)N[C@H]3COc4cc(N5C[C@H](N)[C@]6(CCCCO6)C5)ccc4C3)sc2n1 : 7.30 to 9.00

Measured pIC50 of Cc1ccc2c(N)c(C(=O)N[C@H]3COc4nc(N5C[C@H](CF)[C@@H](N)C5)ccc4C3)sc2n1 : 5.70 to 6.70

Measured pIC50 of Cc1ccc2c(N)c(C(=O)N[C@H]3COc4nc(N5C[C@@H](CF)[C@H](N)C5)ccc4C3)sc2n1 : 6.70 to 7.30
